Biological target: T1, TNFR1 (Homo sapiens, UniProt P19438)
T1 chain: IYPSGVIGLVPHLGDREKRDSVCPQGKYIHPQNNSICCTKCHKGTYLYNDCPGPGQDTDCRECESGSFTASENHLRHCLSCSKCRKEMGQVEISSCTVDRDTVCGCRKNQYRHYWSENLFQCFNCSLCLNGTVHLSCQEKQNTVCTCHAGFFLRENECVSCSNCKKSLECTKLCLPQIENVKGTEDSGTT
Test: yeast display SC50
metric: apparent Kd (screen) (nM)
// units = nM; emit number, no label

# binder E44P (designed binder) SMEEEVEKAAKEYEKKKKEAIEKHLEKLKAKDKEAAERFLKELPEAAKEYAKDEAKTMSEEEAKRRAKKYKEKVLLSELSEEEQKEIKEAEEKLVRTILKYVEEAAK ; its apparent Kd (screen) = 6.43

Sure, the documented apparent Kd (screen) for K8D (designed binder) SMEEEVEDAAKEYEKKKKEAIEKHLEKLKAKDKEAAERFLKELEEAAKEYAKDEAKTMSEEEAKRRAKKYKEKVLLSELSEEEQKEIKEAEEKLVRTILKYVEEAAK is 1.4

For record A51R (designed binder) SMEEEVEKAAKEYEKKKKEAIEKHLEKLKAKDKEAAERFLKELEEAAKEYRKDEAKTMSEEEAKRRAKKYKEKVLLSELSEEEQKEIKEAEEKLVRTILKYVEEAAK the listed apparent Kd (screen) is 0.49

Short answer for E78Q (designed binder) SMEEEVEKAAKEYEKKKKEAIEKHLEKLKAKDKEAAERFLKELEEAAKEYAKDEAKTMSEEEAKRRAKKYKEKVLLSQLSEEEQKEIKEAEEKLVRTILKYVEEAAK : apparent Kd (screen) was 0.718

Value of apparent Kd (screen) reported for the binder V6L (designed binder) SMEEELEKAAKEYEKKKKEAIEKHLEKLKAKDKEAAERFLKELEEAAKEYAKDEAKTMSEEEAKRRAKKYKEKVLLSELSEEEQKEIKEAEEKLVRTILKYVEEAAK is 3

Recorded result, M58K (designed binder) SMEEEVEKAAKEYEKKKKEAIEKHLEKLKAKDKEAAERFLKELEEAAKEYAKDEAKTKSEEEAKRRAKKYKEKVLLSELSEEEQKEIKEAEEKLVRTILKYVEEAAK , apparent Kd (screen): 16.7

apparent Kd (screen) for E42Y (designed binder) SMEEEVEKAAKEYEKKKKEAIEKHLEKLKAKDKEAAERFLKYLEEAAKEYAKDEAKTMSEEEAKRRAKKYKEKVLLSELSEEEQKEIKEAEEKLVRTILKYVEEAAK is 6.43

Quick note, apparent Kd (screen) for A46F (designed binder) SMEEEVEKAAKEYEKKKKEAIEKHLEKLKAKDKEAAERFLKELEEFAKEYAKDEAKTMSEEEAKRRAKKYKEKVLLSELSEEEQKEIKEAEEKLVRTILKYVEEAAK landed at 16.7

// provenance: paper PMC12416549
